biological target: FimT Lp (Legionella pneumophila, UniProt Q5ZVL2 38-162); assay: NMR titration; 50 mM NaCl; 50 mM Tris-HCl pH 7.2, 50 mM NaCl; […]; ITC 30 C; MST 50-150 mM NaCl, 0.05% Tween-20, […]; conditions: protein: recombinant; tags: His6-SUMO cleaved; blunt
measuredEndpoint: Kd

Asked: Please list Kd recorded for the binder 12mer dsDNA (dsDNA) DNA 1: GTTCGCAACGAA DNA 2: TTCGTTGCGAAC
Given back: ~8.1 µM
